# protocolDetails: GFP drop in mixed WT/humanized-ribosome E. coli culture – GFP/RFP fluorescence, OD600, single point, bacterial rRNA inhibitor project, primary screen (AID 720706)
# assayContext: E. coli WT GFP vs humanized-ribosome RFP mutants, 24 h; stronger effect = lower value, DMSO median 0, no signal -100
In all, about 350,000 compounds went through this assay and about 5,500 (1.6%) were called active. This excerpt belongs to a sample that is enriched for actives.
endpointName: GFP signal change (wild-type ribosome) (%)
Only the number, expressed in %, is required.

compound: CNC[C@@H]1Oc2c(NC(=O)Nc3ccc(F)cc3)cccc2C(=O)N([C@@H](C)CO)C[C@@H]1C
valueUnits: %
numericResult: 0.51

compound: CO[C@@H]1CN(C)C(=O)c2cc(NS(=O)(=O)c3ccc(C)cc3)ccc2OC[C@H](C)N(Cc2nccs2)C[C@@H]1C
valueUnits: %
numericResult: -2.96

compound: Cc1ccc(S(=O)(=O)N(C)C[C@@H]2Oc3ccc(NS(=O)(=O)c4cccs4)cc3C(=O)N([C@@H](C)CO)C[C@H]2C)cc1
valueUnits: %
numericResult: -5.79

compound: CO[C@H]1CN(C)C(=O)c2cc(NC(=O)c3cnccn3)ccc2OC[C@H](C)N(C(=O)C2CC2)C[C@H]1C
valueUnits: %
numericResult: 1

compound: COc1ccc(C(C)(O)c2nc(-c3ccc(C)c(C)c3)cs2)cc1 (stereo not given)
valueUnits: %
numericResult: -26.3

stdin: Consider the compound CC(C)NC(=O)NCC[C@H]1CC[C@@H](NS(=O)(=O)c2ccc(Oc3ccccc3)cc2)[C@@H](CO)O1 and give its measured GFP signal change (wild-type ribosome).
stdout: -0.321

stdin: Consider the compound O=C(NNC(=O)c1ccc2ccccc2c1)c1ccc(Cl)cc1 and give its measured GFP signal change (wild-type ribosome).
stdout: 2.13

stdin: Consider the compound COc1ccc2c3c([nH]c2c1)[C@H](CO)N(C(=O)C1CCC1)CC31CCN(Cc2cccc(F)c2)CC1 and give its measured GFP signal change (wild-type ribosome).
stdout: -1.74

stdin: Consider the compound O=C(NCC[C@H]1CC[C@@H](NC(=O)c2ccncc2)[C@@H](CO)O1)Nc1ccc(Cl)cc1 and give its measured GFP signal change (wild-type ribosome).
stdout: -17.2

stdin: Consider the compound c1ccc(C(=NNc2nc3ccccc3s2)c2ccccn2)cc1 and give its measured GFP signal change (wild-type ribosome).
stdout: -3.87

stdin: Consider the compound O=C(C[C@H]1CC[C@@H]2[C@H](COC[C@H](O)CN2Cc2ccc(Oc3ccccc3)cc2)O1)N1CCN(c2ccccc2)CC1 and give its measured GFP signal change (wild-type ribosome).
stdout: -14.8

stdin: Consider the compound CCNC(=O)[C@@H]1[C@@H](CO)[C@@H]2Cn3c(ccc(-c4ccncc4)c3=O)[C@@H]2N1Cc1cc(F)ccc1F and give its measured GFP signal change (wild-type ribosome).
stdout: 2.37

stdin: Consider the compound CC(/C=N/NC(=O)c1cc(-c2ccc3ccccc3c2)n[nH]1)=C\c1ccco1 and give its measured GFP signal change (wild-type ribosome).
stdout: -18.4

stdin: Consider the compound C/C=C/c1ccc([C@@H]2[C@@H](CO)N3C(=O)CN(C(=O)Nc4cccc(OC)c4)C[C@@H]23)cc1 and give its measured GFP signal change (wild-type ribosome).
stdout: -1.73

stdin: Consider the compound CS(=O)(=O)N(CC(=O)N1CCN(Cc2ccccc2)CC1)c1ccc2c(c1)OCCO2 and give its measured GFP signal change (wild-type ribosome).
stdout: 3.15

stdin: Consider the compound c1ccc2sc(NN=C3CCCC3)nc2c1 and give its measured GFP signal change (wild-type ribosome).
stdout: -34.8

stdin: Consider the compound CC(C)(C)C1CCC(=NNC(=O)c2cc(-c3ccccc3)n[nH]2)CC1 (stereo not given) and give its measured GFP signal change (wild-type ribosome).
stdout: -8.44

stdin: Consider the compound O=C(C[C@H]1C[C@H]2c3cc(NC(=O)C4CCOCC4)ccc3O[C@H]2[C@@H](CO)O1)NCC1CC1 and give its measured GFP signal change (wild-type ribosome).
stdout: 2.89

stdin: Consider the compound Cc1noc(C)c1NC(=O)Nc1ccc2c(c1)C(=O)N([C@@H](C)CO)C[C@H](C)[C@H](CN(C)CC1CCCCC1)O2 and give its measured GFP signal change (wild-type ribosome).
stdout: 2.74

stdin: Consider the compound C[C@@H]1CN([C@H](C)CO)C(=O)c2cccc(NC(=O)CCCCCC(=O)Nc3ccccc3N)c2O[C@H]1CN(C)CC1CCCCC1 and give its measured GFP signal change (wild-type ribosome).
stdout: -16.1

stdin: Consider the compound CN(C)C(=O)[C@H]1[C@H](CO)[C@H]2Cn3c(ccc(-c4ccc(F)cc4)c3=O)[C@H]2N1C(=O)c1ccccn1 and give its measured GFP signal change (wild-type ribosome).
stdout: 3.15

stdin: Consider the compound CO[C@@H]1CN(C)C(=O)c2ccc(NS(=O)(=O)c3ccc(Cl)cc3)cc2OC[C@@H](C)N(C)C[C@@H]1C and give its measured GFP signal change (wild-type ribosome).
stdout: -0.718

====

# protocolDetails: GFP drop in mixed WT/humanized-ribosome E. coli culture – GFP/RFP fluorescence, OD600, single point, bacterial rRNA inhibitor project, primary screen (AID 720706)
# assayContext: E. coli WT GFP vs humanized-ribosome RFP mutants, 24 h; measured here: RFP humanized mutant strains, DMSO median 0, no signal -100, concentration not given here
Among all 350,000 compounds or so, about 5,500 (1.6%) were called active. What follows is part of a selection rich in actives, with near analogues and random picks from the rest.
endpointName: RFP signal change (%)
Only the number, expressed in %, is required.

compound: CCc1c(C)c2ccc(OC3CCCCC3=O)cc2oc1=O (stereo not given)
numericResult: 1.07
//
compound: COc1ccc(/C=C/C(=O)Nc2cccnc2)cc1OC
numericResult: -4.77
//
compound: COc1cccc(C(=O)c2cc3ccc(O)cc3oc2=O)c1
numericResult: 1.31

stdin: Consider the compound C[C@@H]1CN([C@H](C)CO)C(=O)c2cccc(NC(=O)CCCCCC(=O)Nc3ccccc3N)c2O[C@H]1CN(C)CC1CCCCC1 and give its measured RFP signal change.
stdout: -6.11

stdin: Consider the compound CS(=O)(=O)N(CC(=O)N1CCc2ccccc2C1)c1ccc(Br)cc1 and give its measured RFP signal change.
stdout: 0.676

stdin: Consider the compound COc1cc(/C=N/NC(=S)Nc2cccnc2)cc(OC)c1O and give its measured RFP signal change.
stdout: -1.01

stdin: Consider the compound COc1cccc(-c2ccc3c(c2)[C@@H]2[C@@H](CCN2C(=O)CN2CCOCC2)[C@H](CO)N3)c1 and give its measured RFP signal change.
stdout: -1.6

stdin: Consider the compound CCc1nc2ccccc2c(C(=O)NCc2ccc(OC)cc2)c1C and give its measured RFP signal change.
stdout: -3.53

stdin: Consider the compound COc1ccc(/C=C/C(=O)Nc2ccc(C34CC5CC(CC(O)(C5)C3)C4)cc2)cc1OC and give its measured RFP signal change.
stdout: 7.24

stdin: Consider the compound Cc1ccccc1-n1nc(SCC(=O)O)sc1=S and give its measured RFP signal change.
stdout: 5.05

====

# protocolDetails: GFP drop in mixed WT/humanized-ribosome E. coli culture – GFP/RFP fluorescence, OD600, single point, bacterial rRNA inhibitor project, primary screen (AID 720706)
# assayContext: E. coli WT GFP vs humanized-ribosome RFP mutants, 24 h, DMSO median 0, no signal -100
Among all 350,000 compounds or so, about 5,500 (1.6%) were called active.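 How the source made its calls: active means significant combined selectivity score with lowered wild-type GFP, culture density cut under 30%, mutant RFP and density less affected; inactive means any of these conditions unmet.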 The full list was thinned out, with actives kept by preference.
Hi there, use one of these labels in your reply, thanks! active, inactive

Examples from the recorded data:
compound: COCCNC(=O)C[C@H]1C[C@H]2c3cc(NS(C)(=O)=O)ccc3O[C@H]2[C@H](CO)O1
answerLabel: inactive
//
compound: CC[C@]1(C(=O)OC)[C@H]2C(=O)N(Cc3ccccc3)C(=O)[C@H]2[C@H]2CN=C(SCc3ccc(C#N)cc3)N21
answerLabel: active
//
compound: C[C@@H]1CN([C@H](C)CO)C(=O)c2cc(-c3cccc(F)c3)cnc2O[C@H]1CN(C)C(=O)Nc1ccccc1F
answerLabel: inactive

stdin: So what was the verdict on O=S1(=O)CCOC[C@H](Cc2ccccc2)N1Cc1ccccc1Br in this test?
stdout: inactive

stdin: So what was the verdict on CC(=O)C(CC(=O)N1CCCC1)C(=O)Nc1ccc(Cl)cc1 (centres undefined) in this test?
stdout: inactive

stdin: So what was the verdict on COCc1cn(CC[C@H]2CC[C@H](NC(=O)c3ccncc3)[C@H](CO)O2)nn1 in this test?
stdout: inactive

stdin: So what was the verdict on COc1ccc(Br)cc1/C=N/Nc1ccc(S(=O)(=O)Nc2ccccc2C(=O)O)cc1[N+](=O)[O-] in this test?
stdout: active

stdin: So what was the verdict on C[C@@H]1CN([C@H](C)CO)C(=O)Cc2cc(N(C)C)ccc2O[C@H]1CN(C)C(=O)NC1CCCCC1 in this test?
stdout: inactive

stdin: So what was the verdict on CN1C[C@@H]2[C@H](c3ccccc31)[C@@H](CO)N2C(=O)Nc1ccccc1 in this test?
stdout: inactive

stdin: So what was the verdict on CC(=O)Nc1ccc(S(=O)(=O)N2CCN(c3ccc([N+](=O)[O-])c(NCCN4CCOCC4)c3)CC2)cc1 in this test?
stdout: inactive

stdin: So what was the verdict on CCOc1ccccc1Nc1ccc(C(=O)O)cc1[N+](=O)[O-] in this test?
stdout: inactive

stdin: So what was the verdict on O=C(Nc1ccccc1F)N[C@@H]1C=C[C@H](CC(=O)N2CCCCC2)O[C@@H]1CO in this test?
stdout: inactive

stdin: So what was the verdict on O=C(Nc1cc(F)ccc1F)N1CC(=O)N2[C@H](CO)[C@@H](c3ccc(-c4cccnc4)cc3)[C@@H]2C1 in this test?
stdout: inactive

stdin: So what was the verdict on O=C(NC1CCN(C(=S)Nc2ccc(Cl)cc2)CC1)C1CCCCC1 in this test?
stdout: inactive

stdin: So what was the verdict on NC(=O)c1ccc(CN2CCC(Cc3ccccc3)CC2)cc1 in this test?
stdout: inactive

stdin: So what was the verdict on COc1ccccc1OCCNc1cc(N2CCOCC2)ccc1[N+](=O)[O-] in this test?
stdout: active
